- System: gastric acid secretion
- ASSAY_NAME: Gastric acid secretion-inhibiting action (pentagastrin-stimulated, perfused stomach)
- Assay type: in vivo, Male SD rat
- ASSAY_CONDITIONS: PGE2 = 1; pentagastrin 0.05 μg/kg/min; femoral vein injection; area under pH curve
Recorded measurements of Relative Effectiveness to PGE2 (gastric acid secretion inhibition), one per entry
RESULT_TYPE: Relative Effectiveness to PGE2 (gastric acid secretion inhibition)

COMPOUND	STUDY_TARGET	ASSAY_RESULT
O=C(O)CCc1cccc2c1O[C@H]1C[C@@H](O)[C@H](/C=C/[C@@H](O)c3ccccc3)[C@@H]21 (relative stereo) [Compound 71]	gastric acid secretion	7.1
CCCCC(C)[C@H](O)/C=C/[C@@H]1[C@H]2c3cccc(CCC(=O)O)c3O[C@H]2C[C@H]1O (some centres unmarked) [Compound 51]	gastric acid secretion	35
O=C(O)CCc1cccc2c1O[C@H]1C[C@@H](O)[C@H](/C=C/[C@@H](O)C3CCCCC3)[C@@H]21 (relative stereo) [Compound 60]	gastric acid secretion	1.3
CCCCCC[C@H](O)/C=C/[C@@H]1[C@H]2c3cccc(CCC(=O)O)c3O[C@H]2C[C@H]1O (relative stereo) [Compound 45]	gastric acid secretion	3.5
CC(C)(Oc1ccccc1)[C@H](O)/C=C/[C@@H]1[C@H]2c3cccc(CCC(=O)O)c3O[C@H]2C[C@H]1O (relative stereo) [Compound 124]	gastric acid secretion	62
CCCCC[C@H](O)/C=C/[C@H]1[C@H](O)CC(=O)[C@@H]1C/C=C\CCCC(=O)O [PGE2, reference compound]	gastric acid secretion	1
O=C(O)CCc1cccc2c1O[C@H]1C[C@@H](O)[C@H](/C=C/[C@@H](O)COc3ccccc3)[C@@H]21 (relative stereo) [Compound 120]	gastric acid secretion	54
CCC[C@H](C)C[C@H](O)/C=C/[C@@H]1[C@H]2c3cccc(CCC(=O)O)c3O[C@H]2C[C@H]1O [Compound 54]	gastric acid secretion	6.1
CCCOC[C@H](O)/C=C/[C@@H]1[C@H]2c3cccc(CCC(=O)O)c3O[C@H]2C[C@H]1O (relative stereo) [Compound 101]	gastric acid secretion	4.9
CCOCC(C)(C)[C@H](O)/C=C/[C@@H]1[C@H]2c3cccc(CCC(=O)O)c3O[C@H]2C[C@H]1O (relative stereo) [Compound 108]	gastric acid secretion	7.0
CCCCC[C@H](O)/C=C/[C@@H]1[C@H]2c3cccc(CCC(=O)O)c3O[C@H]2C[C@H]1O (relative stereo) [Compound 42]	gastric acid secretion	3.6

* * *

Recorded measurements of IC50, one per entry
- System: platelet aggregation
- ASSAY_NAME: Platelet aggregation-inhibiting action (ADP-induced, platelet-rich plasma)
- Format: cell-based
- ASSAY_CONDITIONS: ADP 10 μM, compound added 1 minute before ADP, human PRP, read-out: IC50 (concentration which inhibits 50% platelet aggregation)
RESULT_TYPE: IC50 (ng/mL)

MOLECULE	ASSAY_RESULT
CCCCC[C@H](O)/C=C/[C@@H]1[C@H]2c3cccc(CCC(=O)O)c3O[C@H]2C[C@H]1O (relative stereo)	5.8
CCCCC(C)(C)[C@H](O)/C=C/[C@@H]1[C@H]2c3cccc(CCC(=O)O)c3O[C@H]2C[C@H]1O (relative stereo)	1000
O=C(O)CCc1cccc2c1O[C@H]1C[C@@H](O)[C@H](/C=C/[C@@H](O)COc3ccccc3)[C@@H]21 (relative stereo)	1000
CCC[C@H](C)C[C@H](O)/C=C/[C@@H]1[C@H]2c3cccc(CCC(=O)O)c3O[C@H]2C[C@H]1O	3.2
O=C(O)CCc1cccc2c1O[C@H]1C[C@@H](O)[C@H](/C=C/[C@@H](O)c3ccccc3)[C@@H]21 (relative stereo)	2.85
O=C(O)CCc1cccc2c1O[C@H]1C[C@@H](O)[C@H](/C=C/[C@@H](O)C3CCCCC3)[C@@H]21 (relative stereo)	3.8
